# Tested on: primary HIV-1 isolate 93IN101 (subtype C, R5)
# protocol-text: Neutralization assay in PBMC (p24 ELISA)
# condition-summary: Human immunodeficiency virus 1, PBMC, read-out: IC50 (μM) ± S.D., inhibitory activity on infection
recorded-endpoint: IC50

**Query** Let me know recorded IC50 for Cc1nc(C(NC(=O)C(=O)Nc2ccc(Cl)c(F)c2)C2CCCCN2)sc1CO (stereo not shown) , thanks.
**Result** ~84 µM

* * *

# Tested on: AZT-resistant (AZT-R) HIV-1 strain
# protocol-text: Multi-cycle neutralization assay in MT-2 cells
# condition-summary: read-out: IC50 (μM) ± S.D., inhibitory activity on infection; AZT-R, subtype B, MT-2, X4, RT-resistant isolate
Criterion: IC50 strictly under 6 µM. Met: condition met. Not met: condition not met.

// below: answered compounds
- Cc1ccc(NC(=O)C(=O)NC(c2nc(C)c(CCO)s2)C2CCCCN2)cc1F.Cl (centres unmarked): condition not met
- Cc1nc(C(NC(=O)C(=O)Nc2ccc(Cl)cc2)C2CCCCN2)sc1CO.Cl (centres unmarked): condition met
- Cc1nc(C(NC(=O)C(=O)Nc2ccc(Cl)c(F)c2)C2CCCCN2)sc1CCO.Cl (centres unmarked): condition not met
- Cc1ccc(NC(=O)C(=O)NC(c2nc(C)c(CO)s2)C2CCCCN2)cc1F.Cl (centres unmarked): condition met

Here is the next item to consider.
**Query** # check: IC50 < 6 µM for CC1(C)CC(NC(=O)C(=O)Nc2ccc(Cl)cc2)CC(C)(C)N1 [NBD-556, reference compound]
**Result** condition not met

* * *

Catalogue of IC50 values
# Tested on: Panel C env Du156, clone 12 (SVPC3)
# Type: cell-based
# condition-summary: TZM-bl, read-out: IC50 (μM) ± S.D., antiviral activity against HIV-1 envelope pseudoviruses
API: value field is a number in µM; no unit string.

• Cc1nc(C(NC(=O)C(=O)Nc2ccc(Cl)cc2)C2CCCCN2)sc1CO.Cl (centres unmarked) [Compound 6] = 4.6

Kindly review the next compound as well.
**Query** Let me know recorded IC50 for Cc1nc(C(NC(=O)C(=O)Nc2ccc(Cl)c(F)c2)C2CCCCN2)sc1CCO.Cl (centres unmarked) [Compound 39] , thanks.
**Result** 1.7

* * *

recorded-endpoint: melting point

Example results:
- CC1CCCN(c2ccccc2CNC(=O)CCC(=O)Nc2ccc(Cl)cc2)C1 (centres unmarked) [Compound 45]: 162 to 163 °C
- O=C(CCC(=O)Nc1ccc(Cl)cc1)NCCCN1CCC(O)CC1 [Compound 44]: 154 to 155 °C
- CCn1cc(NC(=O)C(=O)Nc2ccc(Cl)cc2)cn1 [Compound 17]: 232 to 233 °C

**Query** Let me know recorded melting point for O=C(CCC(=O)Nc1ccc(Cl)cc1)NCCCN1CCCC(O)C1 (centres unmarked) [Compound 43] , thanks.
**Result** 122 to 123 °C

**Query** Let me know recorded melting point for O=C(CCC(=O)Nc1ccc(Cl)cc1)NCc1ccc(S(=O)(=O)N2CCOCC2)cc1 [Compound 42] , thanks.
**Result** 208 to 209 °C (dec.)

* * *

# Test system: TZM-bl cells
# protocol-text: Cytotoxicity in TZM-bl cells (XTT)
# Assay type: cell-based
# condition-summary: TZM-bl cells, XTT, 3 days; read-out: TZM-bl cells CC50 (μM ± SD)
# Protocol: The cytotoxicity of small molecules in TZM-bl cells was measured by a colorimetric method using XTT (sodium 3′-(1-(phenylamino)-carbonyl)-3,4-tetrazolium-bis(4-methoxy-6-nitro)benzenesulfonic acid hydrate), a light yellowish tetrazolium dye. Briefly, 100 μl of a compound at graded concentrations was added to equal volume of cells (10^5/ml) in wells of 96-well plates followed by incubation at 37° C. for 3 days and addition of XTT (PolySciences, Inc., Warrington, Pa.).
recorded-endpoint: CC50

Example results:
* Cc1nc(C(NC(=O)C(=O)Nc2ccc(F)c(F)c2)C2CCCCN2)sc1CCO.Cl.Cl (centres unmarked) | > 78.2 µM
* Cc1nc(C(NC(=O)C(=O)Nc2ccc(C(F)(F)F)cc2)C2CCCCN2)sc1CCO.Cl.Cl (centres unmarked) | > 74 µM

**Query** Let me know recorded CC50 for Cc1nc(C(NC(=O)C(=O)NC2CCCCCC2)C2CCCCN2)sc1CCO (centres unmarked) , thanks.
**Result** > 88 µM

**Query** Let me know recorded CC50 for COC(=O)[C@@H]1C[C@@H](NC(=O)C(=O)Nc2ccc(Cl)cc2)[C@H](c2ccccc2)N1 , thanks.
**Result** > 99.6 µM

**Query** Let me know recorded CC50 for Cc1nc(C(NC(=O)CCC(=O)Nc2ccc(Cl)cc2)C2CCCCN2)sc1CO.Cl (centres unmarked) , thanks.
**Result** > 82 µM

* * *

# protocol-text: Cytotoxicity in MT-2 cells (XTT)
# Assay type: cell-based
# condition-summary: human; MT-2 cells, XTT, four days
Catalogue of CC50 at 4 days values

- O=C(CCC(=O)Nc1ccc(Cl)cc1)NCCCN1CCC(O)CC1: > 109 µM
- Cc1nc(C(NC(=O)C(=O)Nc2ccc(Cl)c(F)c2)C2CCCCN2)sc1CO (stereo not shown): ~83 µM
- O=C(CCC(=O)Nc1ccc(Cl)cc1)NCCCN1CCCC(O)C1 (stereo not shown): ~109 µM
- Cc1nc2ncccn2c1CN1CCC(NC(=O)CCC(=O)Nc2ccc(Cl)cc2)CC1: > 88 µM
- O=C(CCC(=O)Nc1ccc(Cl)cc1)NCc1ccc(S(=O)(=O)N2CCOCC2)cc1: 21.2 µM
- CCC(CN1CCOCC1)NC(=O)CCC(=O)Nc1ccc(Cl)cc1 (stereo not shown): 41.9 µM

Kindly review the next molecule as well.
**Query** Let me know recorded CC50 at 4 days for CC1CCCN(c2ccccc2CNC(=O)CCC(=O)Nc2ccc(Cl)cc2)C1 (stereo not shown) , thanks.
**Result** > 97 µM

* * *

# Tested on: Panel C env CAP-45.2.00.G3, SVPC16
# Type: cell-based
# condition-summary: TZM-bl, read-out: IC50 (μM) ± S.D., antiviral activity against HIV-1 envelope pseudoviruses
recorded-endpoint: IC50 (µM)
API: value field is a number in µM; no unit string.

Example results:
• Cc1nc(C(NC(=O)C(=O)Nc2ccc(Cl)cc2)C2CCCCN2)sc1CO.Cl (stereo not drawn) = 4.7
• CC1(C)CC(NC(=O)C(=O)Nc2ccc(Cl)cc2)CC(C)(C)N1 [NBD-556, reference compound] = 7.9

Kindly review the next compound as well.
**Query** Let me know recorded IC50 for Cc1nc(C(NC(=O)C(=O)Nc2ccc(Cl)c(F)c2)C2CCCCN2)sc1CCO.Cl (stereo not drawn) , thanks.
**Result** 3.4

* * *

# Test system: MT-2 cells
# protocol-text: Cytotoxicity in MT-2 cells (XTT)
# Assay type: cell-based
# condition-summary: MT-2 cells, XTT, four days; listed as 1; read-out: MT-2 Cells CC50
recorded-endpoint: CC50

**Query** Let me know recorded CC50 for CC1(C)CC(NC(=O)C(=O)Nc2ccc(Cl)cc2)CC(C)(C)N1 [NBD-556, reference compound] , thanks.
**Result** ~150 µM

* * *

# Tested on: MT-2 cells
# protocol-text: Cytotoxicity in MT-2 cells (XTT)
# Format: cell-based
# condition-summary: MT-2 cells, XTT, four days; read-out: MT-2 Cells CC50
Catalogue of CC50 values

* CC1(C)CC(NC(=O)C(=O)Nc2ccc(Br)cc2)CC(C)(C)N1 | 223 µM

**Query** Give the observed CC50 of Cc1nc(C(NC(=O)CCC(=O)Nc2ccc(Cl)cc2)C2CCCCN2)sc1CO.Cl (stereo not drawn) for MT-2 cells.
**Result** > 82 µM

* * *

# Tested on: MT-2 cells
# protocol-text: Cytotoxicity in MT-2 cells (XTT)
# Format: cell-based
# condition-summary: MT-2 cells, XTT, four days; listed as NBD-11008; read-out: MT-2 Cells CC50
recorded-endpoint: CC50

**Query** Give the observed CC50 of Cc1ccc(NC(=O)C(=O)NC(c2nc(C)c(CO)s2)C2CCCCN2)cc1F.Cl (stereo not shown) [Compound 28] for MT-2 cells.
**Result** ~85 µM

* * *

# Tested on: primary HIV-1 isolate 93IN101 (subtype C, R5)
# protocol-text: Neutralization assay in PBMC (p24 ELISA)
# condition-summary: read-out: IC50 (μM) ± S.D., inhibitory activity on infection; 93IN101, subtype C, PBMC, R5, primary isolate
recorded-endpoint: IC50

Example results:
* Cc1ccc(NC(=O)C(=O)NC(c2nc(C)c(CO)s2)C2CCCCN2)cc1F.Cl (stereo not shown) [Compound 28] | > 85 µM
* Cc1nc(C(NC(=O)C(=O)Nc2ccc(Cl)c(F)c2)C2CCCCN2)sc1CCO.Cl (stereo not shown) [Compound 39] | ~81.5 µM
* Cc1ccc(NC(=O)C(=O)NC(c2nc(C)c(CCO)s2)C2CCCCN2)cc1F.Cl (stereo not shown) [Compound 38] | > 87 µM

Kindly review the next molecule as well.
**Query** Let me know recorded IC50 for Cc1nc(C(NC(=O)C(=O)Nc2ccc(Cl)cc2)C2CCCCN2)sc1CO.Cl (stereo not shown) [Compound 6] , thanks.
**Result** > 87 µM

Numbers sourced from patent US20140377219A1.
